# subject.of.test: the molecule itself
# test: in vitro polymerization seen by negative-stain electron microscopy; His-tag cleaved with thrombin; concentrated to approximately 1 mg/ml in 20 mM MES, pH 5.5, overnight at room temperature; 2% phosphotungstic acid stain

protein | binding result
PrgI^F16A, recombinant (natural protein, Salmonella enterica serovar Typhimurium, UniProt P41784 1-80, looked up, needle filament protein PrgI of the SPI-1 T3SS, 80 amino acids; not shown: His6, N-terminal, cleaved) MATPWSGYLDDVSAKADTGVDNLQTQVTEALDKLAAKPSDPALLAAYQSKLSEYNLYRNAQSNTVKVFKDIDAAIIQNFR | binds
PrgI^L9A, recombinant (natural protein, Salmonella enterica serovar Typhimurium, UniProt P41784 1-80, looked up, needle filament protein PrgI of the SPI-1 T3SS, 80 amino acids; not shown: His6, N-terminal, cleaved) MATPWSGYADDVSAKFDTGVDNLQTQVTEALDKLAAKPSDPALLAAYQSKLSEYNLYRNAQSNTVKVFKDIDAAIIQNFR | binds
PrgI^L31A, recombinant (natural protein, Salmonella enterica serovar Typhimurium, UniProt P41784 1-80, looked up, needle filament protein PrgI of the SPI-1 T3SS, 80 amino acids; not shown: His6, N-terminal, cleaved) MATPWSGYLDDVSAKFDTGVDNLQTQVTEAADKLAAKPSDPALLAAYQSKLSEYNLYRNAQSNTVKVFKDIDAAIIQNFR | binds
